# subject_of_test: IDH1 R132H (Homo sapiens (Human), UniProt O75874, R132H)
# Sequence (O75874 whole entry R132H): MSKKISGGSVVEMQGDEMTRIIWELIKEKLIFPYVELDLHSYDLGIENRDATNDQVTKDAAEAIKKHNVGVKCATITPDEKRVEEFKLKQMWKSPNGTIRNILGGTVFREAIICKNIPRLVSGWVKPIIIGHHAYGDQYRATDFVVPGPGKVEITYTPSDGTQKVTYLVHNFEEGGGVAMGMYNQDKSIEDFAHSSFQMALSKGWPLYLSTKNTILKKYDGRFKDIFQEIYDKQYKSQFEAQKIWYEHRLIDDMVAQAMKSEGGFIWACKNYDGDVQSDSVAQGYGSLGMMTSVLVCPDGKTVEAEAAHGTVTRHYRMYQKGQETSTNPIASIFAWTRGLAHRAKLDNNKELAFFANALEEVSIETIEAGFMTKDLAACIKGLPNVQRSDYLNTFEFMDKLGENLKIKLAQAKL
# assay_details: Assays for IDH1 R132H Inhibitors (NADPH/aKG, resazurin detection)
# Type: biochemical
# test_parameters: IDH1 R132H enzyme, Table 3; read-out: R132H IC50
Give IC50 for every item shown.

Note IC50 for the compound shown: [2H]C([2H])([2H])C([2H])(C([2H])([2H])[2H])C1([2H])CN(c2nc(C3CC3)c3c(c2C#N)CC(C)(C)OC3)CCN1C(=O)CC(F)(F)F (stereo in doubt)
< 500 nM

Note IC50 for the compound shown: C#CC(=O)N1CCc2c(C3CC3)nc(N3CCN(C(=O)CCOC)[C@H](C4CC4)C3)c(C#N)c2C1
< 500 nM

Note IC50 for the compound shown: [2H]C([2H])([2H])C([2H])(C([2H])([2H])[2H])[C@@]1([2H])N(C(=O)CCC(=O)OC)C([2H])([2H])C([2H])([2H])N(c2nc(C3CC3)c3c(c2C#N)CC(C)(C)OC3)C1([2H])[2H]
< 500 nM
